Assay: growth inhibitors of H69AR lung tumor, primary screen, human, duplicate replicates (AID 580);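 note: 100% = mean luminescence of untreated wells and 0% = no signal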
Conditions: H69AR lung tumor cells viability, ATP luminescence, 72 h; at 10 µM; hits give low values
assay-readout: viability (%)
Output spec: scalar in %, unitless text.

Previously resolved entries follow.
compound	viability [%]
COC(=O)[C@@H](N)Cc1ccc(O)cc1	109
CCOC(=O)C(NC(C)=O)(Nc1ccc(S(=O)(=O)Nc2nccs2)cc1)C(F)(F)F (stereo unspecified)	109
Cc1cc(C)n(-c2nc3ccccc3c(=O)n2OCCOc2ccccc2)n1	89.6
O=C(NCc1ccccc1)C1CCCN1S(=O)(=O)c1cccc2cccnc12 (stereo unspecified)	110
Cn1cnc(S(=O)(=O)NCc2cccs2)c1	95.5
CCOc1ccc(-c2noc(-c3ccncc3)n2)cc1OCC	86.7
CCCn1c(-c2ccc(F)cc2)cnc1SCC(=O)O	84.8
O=C1c2ccccc2C(=O)N1CC(O)Cn1nnc2ccccc21 (stereo unspecified)	95.9
O=C1OC2(c3ccccc3)C3CCCC2C13	100
CCCC(=O)Nc1ncnc2c1ncn2[C@@H]1O[C@@H]2COP(=O)(O)O[C@H]2[C@H]1OC(=O)CCC	104

Query compound follows.
Item under review: "COc1c(Br)cc2c(C)c(C(=O)O)oc2c1Br" . Reported viability? 94.2
